- System: E. coli 14
- assay overview: MIC, liquid medium test tube series dilution test
- Assay type: cell-based
- settings: E. coli 14, 24 hours, 37°C
measured endpoint: MIC

chemical string | target under test | measured endpoint | reported value
CNC(=O)N(C)C(=O)N[C@@H](C(=O)N[C@@H]1C(=O)N2[C@@H]1SC(C)(C)[C@@H]2C(=O)O)c1ccccc1 | E. coli 14 | MIC | 0.8-4 units/ml
CN(C(=O)N[C@@H](C(=O)N[C@@H]1C(=O)N2[C@@H]1SC(C)(C)[C@@H]2C(=O)O)c1ccccc1)C(=O)C1CCCCC1 | E. coli 14 | MIC | 1.56 units/ml
CN(C)C(=O)N(C)C(=O)N[C@@H](C(=O)N[C@@H]1C(=O)N2[C@@H]1SC(C)(C)[C@@H]2C(=O)O)c1ccccc1 | E. coli 14 | MIC | 12.5 units/ml
Cc1noc(C)c1C(=O)N(C)C(=O)N[C@@H](C(=O)N[C@@H]1C(=O)N2[C@@H]1SC(C)(C)[C@@H]2C(=O)O)c1ccccc1 | E. coli 14 | MIC | 0.8-4 units/ml

Let us examine a further case.
What value of measured MIC is listed for CCN(C(=O)N[C@@H](C(=O)N[C@@H]1C(=O)N2[C@@H]1SC(C)(C)[C@@H]2C(=O)O)c1ccccc1)C(=O)c1ccccc1 ? 6.25 units/ml

====

Can you tell me MIC for the items I'm about to list?
- Test system: E. coli C 165
- assay overview: MIC, liquid medium test tube series dilution test
- Assay type: cell-based
- settings: E. coli C 165, 24 hours, 37°C
Numbers only, in units/ml.

molecule | target under test | reported value
C=CCOC(=O)N(C)C(=O)N[C@@H](C(=O)N[C@@H]1C(=O)N2[C@@H]1SC(C)(C)[C@@H]2C(=O)O)c1ccccc1 [Example 68] | E. coli C 165 | 12.5
CCN(C(=O)N[C@@H](C(=O)N[C@@H]1C(=O)N2[C@@H]1SC(C)(C)[C@@H]2C(=O)O)c1ccccc1)C(=O)c1ccccc1 | E. coli C 165 | 25
CC(=O)N(C)C(=O)NC(C(=O)N[C@@H]1C(=O)N2[C@@H]1SC(C)(C)[C@@H]2C(=O)O)c1cccs1 (stereo partly drawn) | E. coli C 165 | 50
CC(=O)N(C)C(=O)NC(C(=O)N[C@@H]1C(=O)N2[C@@H]1SC(C)(C)[C@@H]2C(=O)O)c1ccc(C)cc1 (stereo partly drawn) | E. coli C 165 | 50
CN(C(=O)N[C@@H](C(=O)N[C@@H]1C(=O)N2[C@@H]1SC(C)(C)[C@@H]2C(=O)O)c1ccccc1)C(=O)N1CCCCC1 | E. coli C 165 | 25

Batch of 8 molecules: report MIC for each.
1. CN(C(=O)N[C@@H](C(=O)N[C@@H]1C(=O)N2[C@@H]1SC(C)(C)[C@@H]2C(=O)O)c1ccccc1)C(=O)C1CCCCC1
2. CN(C(=O)NC(C(=O)N[C@@H]1C(=O)N2[C@@H]1SC(C)(C)[C@@H]2C(=O)O)c1cccs1)C(=O)c1ccccc1Cl (stereo partly drawn)
3. CN(C(=O)N[C@@H](C(=O)N[C@@H]1C(=O)N2[C@@H]1SC(C)(C)[C@@H]2C(=O)O)c1ccccc1)C(=O)c1ccc(Cl)cc1[N+](=O)[O-]
4. COC(=O)N(C)C(=O)N[C@@H](C(=O)N[C@@H]1C(=O)N2[C@@H]1SC(C)(C)[C@@H]2C(=O)O)c1ccccc1
5. CN(C(=O)N[C@@H](C(=O)N[C@@H]1C(=O)N2[C@@H]1SC(C)(C)[C@@H]2C(=O)O)c1ccccc1)C(=O)N1CCOCC1
6. COc1ccc(C(=O)N(C)C(=O)N[C@@H](C(=O)N[C@@H]2C(=O)N3[C@@H]2SC(C)(C)[C@@H]3C(=O)O)c2ccccc2)cc1[N+](=O)[O-]
7. CC1(C)S[C@@H]2[C@H](NC(=O)[C@H](N)c3ccccc3)C(=O)N2[C@H]1C(=O)O [Ampicillin, D(-)-α-Aminobenzylpenicillin, reference compound]
8. CC1(C)S[C@@H]2[C@H](NC(=O)[C@H](NC(=O)N3CCNC3=S)c3ccccc3)C(=O)N2[C@H]1C(=O)O

6.25
50
3.12
12.5
25
6.25
6.25
50

Would you mind listing MIC for each of the following molecules?
1. Cc1ccc(C(NC(=O)N2CCNC2=O)C(=O)N[C@@H]2C(=O)N3[C@@H]2SC(C)(C)[C@@H]3C(=O)O)cc1 (stereo partly drawn) [Example 46]
2. CN(C(=O)C=Cc1ccccc1)C(=O)N[C@@H](C(=O)N[C@@H]1C(=O)N2[C@@H]1SC(C)(C)[C@@H]2C(=O)O)c1ccccc1

[50, 1.56]

# get_value(readout= MIC, system= E. coli C 165) for CN(C(=O)N[C@@H](C(=O)N[C@@H]1C(=O)N2[C@@H]1SC(C)(C)[C@@H]2C(=O)O)c1ccccc1)C(=O)c1ccccc1[N+](=O)[O-] 3.1
